tested on: M. tuberculosis; format: cell-based, Mycobacterium tuberculosis (laboratory strain H37Rv); settings: peptide 10 µg/mL; MGIT; less diluted inoculum; technical repeat 1a; TB control (no peptide) 7.02
Decision: Time to Positivity (Days.Hours) Experiment 1a >= 6 Days.Hours yields condition met, all other cases yield condition not met.

Known results for substances:
[[record]]
substance = "49: peptide from the authors' library (VRLRIRVRVIRK) [Peptide 49]"
group = "condition not met"

[[record]]
substance = "5: peptide from the authors' library; same sequence as P8/Designed * (FFIYVWRRR) [Peptide 5]"
group = "condition not met"

[[record]]
substance = "61: peptide from the authors' library (ILKWKTKWWKWFR) [Peptide 61]"
group = "condition met"


Please turn your attention to the following entry.
Inquiry: Reported Time to Positivity (Days.Hours) Experiment 1a reaches at least 6 Days.Hours for 64: peptide from the authors' library (RLARIVVIRVAR) [Peptide 64] ?
Reply text: condition met

----------
Provide the recorded Time to Positivity (Days.Hours) Experiment 1a for the entries that follow.
tested on: M. tuberculosis; format: cell-based, Mycobacterium tuberculosis (laboratory strain H37Rv); conditions: peptide 10 µg/mL; MGIT; less diluted inoculum; technical repeat 1a; TB control (no peptide) 7.02
Where no end group is shown, it is not given here.
Answers are plain numbers, in Days.Hours.

Example entries begin here.
[[record]]
substance = "66: peptide from the authors' library (RRARIVVIRVAR) [Peptide 66]"
quantitativeresult = 6.05

[[record]]
substance = "16: peptide from the authors' library (RLKRWWKFL) [Peptide 16]"
quantitativeresult = 6.01

[[record]]
substance = "59: peptide from the authors' library (ILKWKRKWWKWRR) [Peptide 59]"
quantitativeresult = 5.17


List Time to Positivity (Days.Hours) Experiment 1a for every entry below, keeping the order given.
1. 22: peptide from the authors' library (IRMRIRVLL) [Peptide 22]
2. LLGDFFRKSKEKIGKEFKRIVQRIKDFLRNLVPRTES [Peptide 78, reference compound]
3. 9: peptide from the authors' library; same sequence as P9/Designed (KRRWRIWLV) [Peptide 9]
4. 60: peptide from the authors' library (ILKWKIFKWKWFR) [Peptide 60]
5. RLARIVVIRWAR-CONH2 (RLARIVVIRWAR-NH2) [Peptide 72]
6. 77: peptide from the authors' library (VRLRIRVAVIRA) [Peptide 77]
7. 63: peptide from the authors' library; same sequence as Indolicidin/Cow (ILPWKWPWWPWRR) [Peptide 63]
8. 68: peptide from the authors' library (RLRRIVVIRVAR) [Peptide 68]

Reply text:
[6.00, 6.08, 6.07, 6.03, 6.22, 6.14, 6.22, 6.09]

List Time to Positivity (Days.Hours) Experiment 1a for every entry below, keeping the order given.
1. 67: peptide from the authors' library (RLWRIVVIRVAR) [Peptide 67]
2. RLARIVVIRVRR-CONH2 (RLARIVVIRVRR-NH2) [Peptide 70]
3. 29: peptide from the authors' library (RWRWWWRVY) [Peptide 29]

Reply text:
[6.19, 6.03, 6.13]

List Time to Positivity (Days.Hours) Experiment 1a for every entry below, keeping the order given.
1. 76: peptide from the authors' library (VRWRIRVAVIRA) [Peptide 76]
2. RRWRIVVIRVRR-CONH2 (RRWRIVVIRVRR-NH2) [Peptide 69]
3. 3: peptide from the authors' library (WKWRVRVTI) [Peptide 3]
4. 65: peptide from the authors' library (RGARIVVIRVAR) [Peptide 65]
5. 20: peptide from the authors' library (KWKWWWRKI) [Peptide 20]

Reply text:
[6.13, 6.02, 6.08, 6.16, 6.11]
